Values from paper PMC9220922

Experiment: Brain penetration after i.v. injection (LC-MS/MS)
Format: in vivo, Swiss CD1 mice
Conditions: Swiss CD1, mouse, brain, iv; mice, 7.5 mg/kg i.v., 5 min; read-out: Givinostat brain level
Description: Mice were sacrificed at different time points up to 48 h after the injection and blood and brain were harvested. […] All samples were analyzed for their Givinostat content using the LC-MS/MS method. […] Samples were analyzed on a UPLC Acquity (Waters, Milford, MA, USA) coupled with an API 3200 Triple Quadrupole (ABSciex). […] Analytes were quantified in MRM ESI positive mode. […] Pharmacokinetic parameters were calculated using Excel Add in (PK Solver 2.0, Excel 2007 Microsoft add in). […]
outcome_measure: concentration at 5 min

Which measured concentration at 5 min value corresponds to CCN(CC)Cc1ccc2cc(COC(=O)Nc3ccc(C(=O)NO)cc3)ccc2c1 ? 102 ng/g

----------
experiment: Brain penetration after i.v. injection (LC-MS/MS); format: in vivo, Swiss CD1 mice; conditions: Swiss CD1, mouse, brain, iv; mice, 7.5 mg/kg i.v., 10 min; read-out: Givinostat brain level
outcome_measure: concentration at 10 min (ng/g)
Numbers only, in ng/g.

Which measured concentration at 10 min value corresponds to CCN(CC)Cc1ccc2cc(COC(=O)Nc3ccc(C(=O)NO)cc3)ccc2c1 ? 101

----------
assay: Plasma pharmacokinetics after i.v. injection (LC-MS/MS); format: in vivo; details: Swiss CD1, mouse, iv, mice, 7.5 mg/kg i.v., 0.5 h, read-out: Givinostat plasma level
outcome_measure: concentration at 0.5 h

Which measured concentration at 0.5 h value corresponds to CCN(CC)Cc1ccc2cc(COC(=O)Nc3ccc(C(=O)NO)cc3)ccc2c1 ? 0.256 µg/mL

----------
assay: Plasma pharmacokinetics after i.v. injection (LC-MS/MS); type: in vivo; settings: Swiss CD1, mouse, iv, mice, 7.5 mg/kg i.v., 1 h, read-out: Givinostat plasma level
outcome_measure: concentration at 1 h
Quick note: unit goes after the number.

Which measured concentration at 1 h value corresponds to CCN(CC)Cc1ccc2cc(COC(=O)Nc3ccc(C(=O)NO)cc3)ccc2c1 [Givinostat] ? 75 ng/mL

----------
test: Plasma pharmacokinetics after i.v. injection (LC-MS/MS); format: in vivo; settings: Swiss CD1, mouse, iv, mice, 7.5 mg/kg single i.v., read-out: mean residence time (MRT0-t)
outcome_measure: MRT last (min)
Answers are plain numbers, in min.

Which measured MRT last value corresponds to CCN(CC)Cc1ccc2cc(COC(=O)Nc3ccc(C(=O)NO)cc3)ccc2c1 [Givinostat] ? 36

----------
experiment: Brain penetration after i.v. injection (LC-MS/MS); assay type: in vivo, Swiss CD1 mice; conditions: Swiss CD1, mouse, brain, iv; mice, 7.5 mg/kg i.v., 6 h; read-out: Givinostat brain level
outcome_measure: concentration at 6 h
Quick note: unit goes after the number.

Which measured concentration at 6 h value corresponds to CCN(CC)Cc1ccc2cc(COC(=O)Nc3ccc(C(=O)NO)cc3)ccc2c1 ? 7 ng/g

----------
assay: Plasma pharmacokinetics after i.v. injection (LC-MS/MS); assay type: in vivo; details: Swiss CD1, mouse, iv, mice, 7.5 mg/kg single i.v., read-out: plasma exposure (AUC0-t)
outcome_measure: AUC(0-t) (ng·h/mL)
Answers are plain numbers, in ng·h/mL.

Which measured AUC(0-t) value corresponds to CCN(CC)Cc1ccc2cc(COC(=O)Nc3ccc(C(=O)NO)cc3)ccc2c1 ? 478
